biological target: SHP2-C SH2; experiment: SH2 binding enrichment of the phosphorylated peptide, bacterial display (enrichment ratio); higher = better substrate or ligand; peptides without Tyr show the background
I would appreciate it if you labelled entries Satisfied when SH2 binding enrichment is 0.7 or higher, otherwise Not satisfied.

PMFTKYGNGLL [RPGRIP1L_Y196_S199G] ... Not satisfied
IIAVHYVLEES [RYR2_Y4559] ... Satisfied
KFGTNYRVGSS [CPO_Y278_YF] ... Satisfied
IHHIDYYKETT [FGFR1_Y653_K656E] ... Not satisfied
YPKAHYHWLVL [APTX_Y214_R213H] ... Satisfied
MASTSYDYCRV [BST2_Y6] ... Not satisfied
AHLTEYLSTHY [UQCRC1_Y219_D215H] ... Satisfied
SHMVNYQPYRK [TEX37_Y25_D24N] ... Satisfied
KSLFHHRQYSA [CPS1_Y1491_Y1491H] ... Not satisfied
SRDPFYEMLAA [CYTH1_Y382] ... Satisfied

Kindly review the next sequence as well.
Query :: Decide: SH2 binding enrichment of EDASEYYENYI [PARP4_Y214_F215Y] >= 0.7?
Result :: Not satisfied

---

biological target: Grb2 SH2 (UniProt P62993); assay: SH2 binding enrichment of the phosphorylated peptide, bacterial display (enrichment ratio); higher = better substrate or ligand; peptides without Tyr show the background
Sequence (P62993 whole entry, looked up): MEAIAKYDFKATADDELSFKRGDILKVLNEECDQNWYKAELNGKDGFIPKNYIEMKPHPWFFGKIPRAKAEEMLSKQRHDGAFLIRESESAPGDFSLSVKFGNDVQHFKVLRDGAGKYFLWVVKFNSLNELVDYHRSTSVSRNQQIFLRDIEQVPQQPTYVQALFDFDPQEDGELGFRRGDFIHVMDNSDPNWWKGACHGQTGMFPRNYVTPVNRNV
I would appreciate it if you labelled entries t when SH2 binding enrichment is 0.9 or higher, otherwise f.

Worked examples follow.
FDDGKYVFVVT [RPS6KA3_Y488_YF] ... f
QRASDYYSQQM [GBP6_Y333_A331S] ... t
QYNMQYSSSAA [ERBB2IP_Y981_I979M] ... t
LYSGDCYRIQG [DDR2_Y740_Y740C] ... f
CTTIHYDYMCN [TP53_Y234_N235D] ... t

Query :: Decide: SH2 binding enrichment of FKTPTYPFLLP [PLD2_Y578_YF] >= 0.9?
Result :: t

Query :: Decide: SH2 binding enrichment of IHHIDYYKETT [FGFR1_Y653_K656E] >= 0.9?
Result :: f

Query :: Decide: SH2 binding enrichment of NGQALYAACQT [XDH_Y1092_V1091L] >= 0.9?
Result :: f

Query :: Decide: SH2 binding enrichment of KDHPDYKYQRR [SOX10_Y171_P175R] >= 0.9?
Result :: t

Query :: Decide: SH2 binding enrichment of QHVPDYRQNGF [PCDHGA1_Y890_V894G_YF] >= 0.9?
Result :: f

Query :: Decide: SH2 binding enrichment of LLLLFCVVRFC [MPZ_Y177_Y177C_YF] >= 0.9?
Result :: t

---

molecular target: MERTK (UniProt Q12866); assay: phosphorylation enrichment, bacterial display (enrichment ratio); higher = better substrate or ligand; peptides without Tyr show the background
Sequence (Q12866 whole entry, looked up): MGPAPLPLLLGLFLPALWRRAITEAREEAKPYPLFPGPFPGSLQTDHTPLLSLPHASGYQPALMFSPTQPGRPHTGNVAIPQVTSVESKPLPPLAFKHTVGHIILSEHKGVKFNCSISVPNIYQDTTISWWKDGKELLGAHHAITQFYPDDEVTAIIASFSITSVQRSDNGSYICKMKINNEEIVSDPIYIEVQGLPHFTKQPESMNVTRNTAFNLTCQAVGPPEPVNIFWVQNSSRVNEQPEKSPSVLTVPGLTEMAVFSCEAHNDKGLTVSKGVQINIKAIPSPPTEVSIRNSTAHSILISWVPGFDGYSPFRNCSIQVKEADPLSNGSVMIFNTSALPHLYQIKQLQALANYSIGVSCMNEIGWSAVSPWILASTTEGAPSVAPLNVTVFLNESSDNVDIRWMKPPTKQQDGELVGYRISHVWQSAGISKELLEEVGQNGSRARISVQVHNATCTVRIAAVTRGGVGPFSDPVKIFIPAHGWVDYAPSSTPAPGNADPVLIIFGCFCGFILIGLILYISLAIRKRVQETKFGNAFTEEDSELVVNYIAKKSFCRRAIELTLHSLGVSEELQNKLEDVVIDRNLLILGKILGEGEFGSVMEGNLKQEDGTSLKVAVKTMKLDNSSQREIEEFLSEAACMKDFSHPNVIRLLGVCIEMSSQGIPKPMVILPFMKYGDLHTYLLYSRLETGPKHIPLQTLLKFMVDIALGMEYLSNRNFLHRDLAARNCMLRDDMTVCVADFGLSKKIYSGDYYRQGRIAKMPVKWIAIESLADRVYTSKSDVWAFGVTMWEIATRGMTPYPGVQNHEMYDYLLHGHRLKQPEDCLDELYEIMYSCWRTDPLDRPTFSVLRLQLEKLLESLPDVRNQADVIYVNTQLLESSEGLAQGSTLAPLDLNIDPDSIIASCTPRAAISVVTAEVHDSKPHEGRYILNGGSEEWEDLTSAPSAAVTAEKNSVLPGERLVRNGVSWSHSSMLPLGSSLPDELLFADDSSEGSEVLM
// map phosphorylation enrichment to label using label 0 (below 0.5), label 1 (0.5 to below 0.8), label 2 (0.8 or more)

Worked examples follow.
KFDLMYAKCAF [TUBA1A_Y399_R402C] ... label 1
LSIWPYLQKID [MFSD8_Y63_M58L] ... label 1
VYAADYYKLLG [ROR2_Y645] ... label 2
KINKMYSDRAM ... label 0
MASTSYDYCRV [BST2_Y6] ... label 2

Query :: Exercise: read the entry LDTFIYDAAVL [GRIN2A_Y730_A727T] and state which class it falls under.
Result :: label 2

Query :: Exercise: read the entry IIAVHYVLEES [RYR2_Y4559] and state which class it falls under.
Result :: label 0

Query :: Exercise: read the entry PRDGEYFTLQI [TP53_Y327_L323R] and state which class it falls under.
Result :: label 2

---

biological target: c-Src SH2; assay: SH2 binding enrichment of the phosphorylated peptide, bacterial display (enrichment ratio); higher = better substrate or ligand; peptides without Tyr show the background
I would appreciate it if you labelled entries rule met when SH2 binding enrichment is 0.5 or higher, otherwise rule not met.

NQDRTYFERVR [SPEN_Y632_S635R_YF] ... rule met
CTTIHYNFICN [TP53_Y234_M237I_YF] ... rule met
MNPPPYSQFLS [FGF23_Y154] ... rule met
GEDLSYGDVPP [IRS1_Y151] ... rule met

Kindly review the next sequence as well.
Query :: Decide: SH2 binding enrichment of VILARYGPAWR [CYP2D6_Y124_F120I] >= 0.5?
Result :: rule not met

---

biological target: Jak2 (UniProt O60674); experiment: phosphorylation enrichment, bacterial display (enrichment ratio); higher = better substrate or ligand; peptides without Tyr show the background
Sequence (O60674 whole entry, looked up): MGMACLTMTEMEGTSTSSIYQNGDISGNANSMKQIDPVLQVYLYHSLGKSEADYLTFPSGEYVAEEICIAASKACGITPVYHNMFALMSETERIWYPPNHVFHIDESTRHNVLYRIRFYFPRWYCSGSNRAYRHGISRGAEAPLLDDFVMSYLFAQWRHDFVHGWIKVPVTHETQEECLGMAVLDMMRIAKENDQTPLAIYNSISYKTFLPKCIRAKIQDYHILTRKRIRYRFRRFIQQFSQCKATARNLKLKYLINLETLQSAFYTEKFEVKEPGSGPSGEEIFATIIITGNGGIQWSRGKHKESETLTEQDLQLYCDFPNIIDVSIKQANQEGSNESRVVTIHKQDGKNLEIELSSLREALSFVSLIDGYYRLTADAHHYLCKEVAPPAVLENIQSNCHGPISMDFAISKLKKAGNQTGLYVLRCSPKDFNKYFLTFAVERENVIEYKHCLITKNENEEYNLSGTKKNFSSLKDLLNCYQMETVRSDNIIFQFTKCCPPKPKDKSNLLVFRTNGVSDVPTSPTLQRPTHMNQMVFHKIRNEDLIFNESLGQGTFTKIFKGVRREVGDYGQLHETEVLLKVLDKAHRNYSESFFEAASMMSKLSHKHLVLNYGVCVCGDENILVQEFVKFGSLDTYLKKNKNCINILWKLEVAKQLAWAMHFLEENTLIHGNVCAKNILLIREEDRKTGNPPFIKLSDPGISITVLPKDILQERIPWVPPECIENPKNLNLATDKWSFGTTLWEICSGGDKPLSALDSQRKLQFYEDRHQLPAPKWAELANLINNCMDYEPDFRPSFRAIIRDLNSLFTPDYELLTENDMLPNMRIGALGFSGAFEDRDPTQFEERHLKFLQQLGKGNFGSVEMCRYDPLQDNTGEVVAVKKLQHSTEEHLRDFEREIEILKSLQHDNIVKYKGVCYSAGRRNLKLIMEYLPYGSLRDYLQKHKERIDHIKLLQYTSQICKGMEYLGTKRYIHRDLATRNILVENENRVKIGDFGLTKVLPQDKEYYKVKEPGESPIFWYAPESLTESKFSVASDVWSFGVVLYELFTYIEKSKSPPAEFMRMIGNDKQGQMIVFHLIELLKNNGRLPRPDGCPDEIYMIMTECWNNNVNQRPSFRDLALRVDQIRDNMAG
I would appreciate it if you labelled entries y when phosphorylation enrichment is 0.8 or higher, otherwise n.

Worked examples follow.
MPIPMYDGSQA [CARMIL1_Y637_A639G] ... y
GIVEDYRPPFC [ACVRL1_Y421_Y426C] ... y
VTVLDYDKTGK [SYT1_Y365_I368T] ... n
TSNQEYLDVSM [FGFR1_Y766_L769V] ... y
IGMFSYVMLAS [GGCX_Y301] ... y

Kindly review the next sequence as well.
Query :: Decide: phosphorylation enrichment of SRDPFYEMLAA [CYTH1_Y382] >= 0.8?
Result :: n

---

Provide the reported phosphorylation enrichment of each item.
molecular target: Jak2 (UniProt O60674); assay: phosphorylation enrichment, bacterial display (enrichment ratio); higher = better substrate or ligand; peptides without Tyr show the background
Numbers only.

For each of the items listed, what is its phosphorylation enrichment?
1. KFDLMYAKCAF [TUBA1A_Y399_R402C]
2. VGTKRYMAPDV [ACVRL1_Y375_E379D]
3. HEKKVYSFCGT [RPS6KA3_Y226_A225V]
4. SIYKDYYRYNF [PLA2G2D_Y85]
5. VATRWYWSPEL [CDKL5_Y177_R178W]

Result ::
1.25
0.415
0.692
8.28
1.14

For each of the items listed, what is its phosphorylation enrichment?
1. LHRAHYDLHHT [AHSG_Y314_R317H]
2. ITGNGYYFRVF [MYBPC3_Y1135_I1131T]

Result ::
1. 0.646
2. 0.936

---

target: FGFR1 (UniProt P11362); assay: phosphorylation enrichment, bacterial display (enrichment ratio); higher = better substrate or ligand; peptides without Tyr show the background
Sequence (P11362 whole entry, looked up): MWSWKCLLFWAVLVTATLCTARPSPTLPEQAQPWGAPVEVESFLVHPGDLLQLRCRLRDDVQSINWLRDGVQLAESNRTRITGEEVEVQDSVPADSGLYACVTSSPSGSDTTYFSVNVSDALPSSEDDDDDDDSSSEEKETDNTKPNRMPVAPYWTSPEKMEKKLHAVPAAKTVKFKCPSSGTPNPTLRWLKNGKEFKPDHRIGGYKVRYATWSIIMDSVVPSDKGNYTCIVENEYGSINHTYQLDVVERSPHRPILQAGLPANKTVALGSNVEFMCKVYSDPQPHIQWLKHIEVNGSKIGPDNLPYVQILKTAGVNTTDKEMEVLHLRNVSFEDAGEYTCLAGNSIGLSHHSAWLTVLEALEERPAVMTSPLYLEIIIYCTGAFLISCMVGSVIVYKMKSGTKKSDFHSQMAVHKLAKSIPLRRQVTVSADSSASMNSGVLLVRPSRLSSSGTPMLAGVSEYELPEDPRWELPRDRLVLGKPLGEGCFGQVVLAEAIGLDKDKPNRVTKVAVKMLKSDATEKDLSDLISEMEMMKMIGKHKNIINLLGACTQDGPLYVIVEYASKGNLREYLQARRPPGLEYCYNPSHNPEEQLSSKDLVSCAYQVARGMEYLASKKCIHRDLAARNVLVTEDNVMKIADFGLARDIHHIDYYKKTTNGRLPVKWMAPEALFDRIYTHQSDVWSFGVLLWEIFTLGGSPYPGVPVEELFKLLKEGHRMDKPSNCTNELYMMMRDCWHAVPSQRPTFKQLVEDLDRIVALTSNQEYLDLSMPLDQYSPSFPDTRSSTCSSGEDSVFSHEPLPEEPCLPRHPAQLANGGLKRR
Provide the reported phosphorylation enrichment of each item.

For each of the items listed, what is its phosphorylation enrichment?
1. GKVADYIPQLP [GLS_Y249_A254P]
2. ERMKVYVPIGF [EPHX1_Y393_T396I]

Result ::
[0.57, 0.412]

For each of the items listed, what is its phosphorylation enrichment?
1. ISRASYYRKGG [ALK_Y1282_Y1278S]
2. KSLFHHRQYSA [CPS1_Y1491_Y1491H]
3. AIGYEYSEINI [SIGLEC12_Y588]
4. MKKKIYAMGGG [GAN_Y424]
5. AIGCEYSEINI [SIGLEC12_Y588_Y586C]
6. ILTLKYPIERG [ACTA1_Y71_H75R]

Result ::
1: 0.409; 2: 0.563; 3: 5.67; 4: 0.376; 5: 3.95; 6: 0.572

For each of the items listed, what is its phosphorylation enrichment?
1. GHLYANDWISI [BEST1_Y227_Y227N]
2. PLQKIYNYNVL [SLC4A1_Y553_T552I]
3. LSVEIHDRREF [ITGB7_Y753_Y753H_YF]
4. MCITQYKRESQ [PRNP_Y218_E219K]
5. KYVVVYFRETD [IL17RB_Y447_I451T]

Result ::
1. 0.609
2. 0.514
3. 0.87
4. 0.443
5. 0.459

---

target: Hck (UniProt P08631); assay: phosphorylation enrichment, bacterial display (enrichment ratio); higher = better substrate or ligand; peptides without Tyr show the background
Sequence (P08631 whole entry, looked up): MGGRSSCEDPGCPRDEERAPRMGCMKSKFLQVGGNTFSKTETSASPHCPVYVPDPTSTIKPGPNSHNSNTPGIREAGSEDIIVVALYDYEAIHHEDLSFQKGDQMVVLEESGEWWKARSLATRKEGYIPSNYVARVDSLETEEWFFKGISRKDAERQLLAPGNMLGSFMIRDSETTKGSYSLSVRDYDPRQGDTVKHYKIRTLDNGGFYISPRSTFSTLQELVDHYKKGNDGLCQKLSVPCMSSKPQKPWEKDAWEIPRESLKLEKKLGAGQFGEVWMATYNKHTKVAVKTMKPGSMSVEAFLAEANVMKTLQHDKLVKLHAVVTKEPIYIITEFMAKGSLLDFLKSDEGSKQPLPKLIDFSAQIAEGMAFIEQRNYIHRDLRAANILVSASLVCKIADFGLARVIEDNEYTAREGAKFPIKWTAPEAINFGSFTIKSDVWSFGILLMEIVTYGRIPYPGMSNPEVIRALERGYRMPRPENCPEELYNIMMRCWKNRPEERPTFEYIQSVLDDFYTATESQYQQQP
I would appreciate it if you labelled entries t when phosphorylation enrichment is 0.6 or higher, otherwise f.

Query :: Decide: phosphorylation enrichment of LPKVSYMKAID [GLRA1_Y307_V308M] >= 0.6?
Result :: f

Query :: Decide: phosphorylation enrichment of NTQRPYFKGGG [TYROBP_Y111_YF] >= 0.6?
Result :: f

Query :: Decide: phosphorylation enrichment of AFGTVYKGLWI [EGFR_Y727] >= 0.6?
Result :: f

Query :: Decide: phosphorylation enrichment of SHISGYAALRR [RAPH1_Y1226_T1228A] >= 0.6?
Result :: f

---

molecular target: SHP2-C SH2; assay: SH2 binding enrichment of the phosphorylated peptide, bacterial display (enrichment ratio); higher = better substrate or ligand; peptides without Tyr show the background
I would appreciate it if you labelled entries T when SH2 binding enrichment is 0.8 or higher, otherwise F.

Worked examples follow.
ESKKHYGYSLY [ANXA3_Y295_F291S] ... T
SISLKYEGRVF [ABL1_Y167_R166K_YF] ... T
MDNQEYKDAYK [BRDT_Y331] ... T
NLFIEYPTGSG [IRF2BPL_Y423_K418N] ... F

Query :: Decide: SH2 binding enrichment of YYSSEYHCVGG [CTSC_Y345_Y347C] >= 0.8?
Result :: F

Query :: Decide: SH2 binding enrichment of KKYFSYAWPFY [BRDT_Y291_H288Y] >= 0.8?
Result :: T

Query :: Decide: SH2 binding enrichment of SIYKDYYRYNF [PLA2G2D_Y85] >= 0.8?
Result :: T

Query :: Decide: SH2 binding enrichment of QRRNVYYYSYL [PTEN_Y176_Y174N] >= 0.8?
Result :: T

Query :: Decide: SH2 binding enrichment of NTGGYYDLYGG [PTPN11_Y63_D61G] >= 0.8?
Result :: T

Query :: Decide: SH2 binding enrichment of VLTPKYRGGGG [HBA1_Y141_S139P] >= 0.8?
Result :: F

Query :: Decide: SH2 binding enrichment of GCAGKYIAMVM [CYP19A1_Y441] >= 0.8?
Result :: F

Query :: Decide: SH2 binding enrichment of AVLSLCASGRT [ACTA2_Y145_Y145C] >= 0.8?
Result :: T

Query :: Decide: SH2 binding enrichment of PDMHSYVVRYN [GRIN2D_Y732_M733V] >= 0.8?
Result :: T

Query :: Decide: SH2 binding enrichment of KAFDMYSGDVM [FAM3D_Y122] >= 0.8?
Result :: F

Query :: Decide: SH2 binding enrichment of LFDPDFMKVIL [CYP4A22_Y104_Y104F_YF] >= 0.8?
Result :: F

Query :: Decide: SH2 binding enrichment of KKGIVYIFNGR [ITGAV_Y404] >= 0.8?
Result :: T

Query :: Decide: SH2 binding enrichment of NRDNTYNRVSE [FGA_Y127] >= 0.8?
Result :: F

Query :: Decide: SH2 binding enrichment of INNIDYFKNTT [FGFR2_Y656_K659N_YF] >= 0.8?
Result :: F

Query :: Decide: SH2 binding enrichment of EAVSIYQFYGQ [CBLC_Y402_H405Y] >= 0.8?
Result :: T

Query :: Decide: SH2 binding enrichment of RKTAKYLLKGE [CDH5_Y82_N79T] >= 0.8?
Result :: F

Query :: Decide: SH2 binding enrichment of ESDGAYIQRMQ [CCDC137_Y125_H127Q] >= 0.8?
Result :: F
